# protocol: Gemcitabine plasma pharmacokinetics in Slc28a1+/+ and Slc28a1-/- mice
# reported.conditions: female, mouse, plasma, iv, 50 mg/kg, AUCINF_pred, dFdU in plasma, KO mice, iv gemcitabine 50mg/kg, per mouse
quantity.measured: AUC(0-inf) (ng·h/mL)

compound | unit.text | result.value
O=c1ccn([C@@H]2O[C@H](CO)[C@@H](O)C2(F)F)c(=O)[nH]1 [dFdU, 2′,2′-difluorodeoxyuridine] | ng·h/mL | 121

* * *

# protocol: Gemcitabine plasma pharmacokinetics in Slc28a1+/+ and Slc28a1-/- mice
# reported.conditions: female, mouse, plasma, iv, 50 mg/kg, MRTlast, dFdU in plasma, KO mice, iv gemcitabine 50mg/kg, per mouse

structure.string | MRT last [min]
O=c1ccn([C@@H]2O[C@H](CO)[C@@H](O)C2(F)F)c(=O)[nH]1 | 9.07
